- ASSAYED TARGET: UniProtKB P23443
- Sequence (P23443 whole entry): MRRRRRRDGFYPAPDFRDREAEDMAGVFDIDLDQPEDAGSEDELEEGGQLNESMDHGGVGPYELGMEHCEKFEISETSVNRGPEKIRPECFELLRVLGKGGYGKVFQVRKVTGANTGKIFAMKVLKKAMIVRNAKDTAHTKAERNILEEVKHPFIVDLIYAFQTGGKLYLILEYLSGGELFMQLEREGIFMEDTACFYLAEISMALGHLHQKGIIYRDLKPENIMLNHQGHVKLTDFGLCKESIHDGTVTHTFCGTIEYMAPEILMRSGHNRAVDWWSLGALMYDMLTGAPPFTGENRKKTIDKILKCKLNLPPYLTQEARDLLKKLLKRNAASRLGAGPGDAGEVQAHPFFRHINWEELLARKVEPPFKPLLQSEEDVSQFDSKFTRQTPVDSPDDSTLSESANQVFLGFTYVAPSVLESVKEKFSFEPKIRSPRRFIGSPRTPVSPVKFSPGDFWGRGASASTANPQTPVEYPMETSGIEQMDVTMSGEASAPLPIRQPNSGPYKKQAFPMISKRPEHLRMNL
- ASSAY NAME: Luciferase-coupled chemiluminescence kinase assay (ATP consumption)
- Format: biochemical
- EXPERIMENTAL CONDITIONS: Table 1; class symbols per key
pIC50: −log10 of the molar value.
# maps each entry to its pIC50

Worked cases, pIC50 given:
Req: Give recorded pIC50 with UniProtKB P23443 for the following molecule: `CCc1n[nH]c2ncnc(N3CCN(c4cc(C(=O)Nc5ccccc5)cc(Br)c4C)CC3)c12`
Resp: > 7.00

Req: Hello, I am looking for reported pIC50 with UniProtKB P23443 for `Cc1ccc(OCC(F)(CF)CF)cc1N1CCN(c2ncnc3[nH]nc(Br)c23)CC1` . Could you help?
Resp: > 7.00

Req: State its pIC50 on UniProtKB P23443: `Cc1c(OCCN2CCCC2)cc(Cl)cc1N1CCN(c2ncnc3[nH]nc(C(F)(F)F)c23)CC1`
Resp: > 7.00

Req: Give the reported pIC50 for `CCCC(=O)c1cc(NCCN2CCCC2)c(C)c(N2CCN(c3ncnc4[nH]nc(Br)c34)CC2)c1` (system: UniProtKB P23443).
Resp: > 7.00

Req: Form: Entry = `CCc1n[nH]c2ncnc(N3CCN(c4cc(Cl)cc(OC)c4C)CC3)c12` | System = UniProtKB P23443 | pIC50 = ____
Resp: > 7.00

Req: Param readout = pIC50; param system = UniProtKB P23443; param query = `CCc1n[nH]c2ncnc(N3CCN(c4cc(Cl)cc(CCCN5CCN(C)CC5)c4C)CC3)c12` ; response: value
Resp: > 7.00

Req: API: value(readout= pIC50, system= UniProtKB P23443, query= `CCc1n[nH]c2ncnc(N3CCN(c4cc(Cl)cc(OCCN5CCN(C)CC5)c4C)CC3)c12` )
Resp: > 7.00

Req: Checklist item: pIC50 tested on UniProtKB P23443, entry `CCc1cc(NCCN2CCCC2)c(C)c(N2CCN(c3ncnc4[nH]nc(Br)c34)CC2)c1` , value?
Resp: > 7.00

Req: Observed pIC50 on UniProtKB P23443 for `Brc1n[nH]c2ncnc(N3CCN(c4cnccn4)CC3)c12` , please.
Resp: 6.00 to 7.00

Req: Lookup: pIC50 / UniProtKB P23443 / `CCN(CC)CCCOc1nc(Cl)nc(N2CCN(c3ncnc4[nH]nc(Br)c34)CC2)c1C`
Resp: 6.00 to 7.00

---
Req: For the record `Cc1c(NCCN2CCCC2)cc(C(=O)N(C)C)cc1N1CCN(c2ncnc3[nH]nc(Br)c23)CC1` , what value of pIC50 is listed for UniProtKB P23443?
Resp: > 7.00

Req: Kindly state the measured pIC50 obtained for `COc1ccc(N2CCN(c3ncnc4[nH]nc(Br)c34)CC2)c(OC)c1` with UniProtKB P23443.
Resp: 6.00 to 7.00

Req: Fill in the recorded pIC50 for this molecule, with UniProtKB P23443 as test system: `Brc1n[nH]c2ncnc(N3CCN(c4ccccc4)CC3)c12`
Resp: > 7.00
